# Target: Protein RecA (Mycobacterium tuberculosis (strain ATCC 25618 / H37Rv)) (UniProt P9WHJ3)
# Sequence (P9WHJ3 whole entry, looked up): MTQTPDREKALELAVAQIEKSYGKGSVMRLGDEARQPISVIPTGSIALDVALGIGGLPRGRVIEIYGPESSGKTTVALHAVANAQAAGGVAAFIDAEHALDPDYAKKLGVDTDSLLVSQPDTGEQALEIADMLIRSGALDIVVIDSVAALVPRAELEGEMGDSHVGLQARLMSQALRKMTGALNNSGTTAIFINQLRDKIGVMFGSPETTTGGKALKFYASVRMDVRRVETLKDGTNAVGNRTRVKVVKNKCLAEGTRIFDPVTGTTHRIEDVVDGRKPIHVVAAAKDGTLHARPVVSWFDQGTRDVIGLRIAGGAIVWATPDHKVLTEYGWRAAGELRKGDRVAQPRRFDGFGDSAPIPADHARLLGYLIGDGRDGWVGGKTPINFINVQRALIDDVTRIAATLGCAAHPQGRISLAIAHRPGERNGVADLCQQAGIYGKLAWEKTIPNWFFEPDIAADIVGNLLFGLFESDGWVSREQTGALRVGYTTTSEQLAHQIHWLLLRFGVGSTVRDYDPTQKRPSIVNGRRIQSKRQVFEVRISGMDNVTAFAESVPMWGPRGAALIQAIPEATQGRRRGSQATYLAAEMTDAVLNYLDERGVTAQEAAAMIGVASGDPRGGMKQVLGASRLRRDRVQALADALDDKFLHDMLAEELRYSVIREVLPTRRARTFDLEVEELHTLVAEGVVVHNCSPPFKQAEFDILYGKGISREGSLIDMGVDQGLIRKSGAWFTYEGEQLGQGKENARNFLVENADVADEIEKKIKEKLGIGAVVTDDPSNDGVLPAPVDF
# Experimental details: Mtb RecA intein splicing inhibitors, primary screen, biochemical, fluorescence, HTS (AID 2221);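 note: 0% = vehicle wells and 100% = reference inhibitor control wells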
# Setup conditions: cell-free RecA intein splicing, active compounds read high, concentration not given here
Among all 290,000 compounds or so, about 2,200 (0.76%) were called active. Only a selection was taken, and actives are over-represented in it overall.
Readings of inhibition for the listed molecules
Measured metric: inhibition (%)

molecule="S=C(NCC1COc2ccccc2O1)Nc1ccc(Br)cc1 (centres undefined)" target="Protein RecA (Mycobacterium tuberculosis (strain ATCC 25618 / H37Rv)) (UniProt P9WHJ3)" assay_result=2.68
molecule=COc1ccc(C(=O)c2c(C)oc3cc([N+](=O)[O-])c(O)c([N+](=O)[O-])c23)cc1 target="Protein RecA (Mycobacterium tuberculosis (strain ATCC 25618 / H37Rv)) (UniProt P9WHJ3)" assay_result=8.62
molecule=CCOC(=O)CN1C(=O)C(=O)c2cc(C)ccc21 target="Protein RecA (Mycobacterium tuberculosis (strain ATCC 25618 / H37Rv)) (UniProt P9WHJ3)" assay_result=1.57
molecule=Cc1cccc(OCC(=O)NCCNC(=O)c2cccnc2)c1 target="Protein RecA (Mycobacterium tuberculosis (strain ATCC 25618 / H37Rv)) (UniProt P9WHJ3)" assay_result=4.34
molecule="CC(C)(C)OC(=O)NC(Cc1ccccc1)C(=O)NC(CSC1CCCCO1)C(=O)NN (centres undefined)" target="Protein RecA (Mycobacterium tuberculosis (strain ATCC 25618 / H37Rv)) (UniProt P9WHJ3)" assay_result=-1.13
molecule=CCC(=C/c1sc2ccc3ccccc3c2[n+]1C)/C=C1\Sc2ccc3ccccc3c2N1C target="Protein RecA (Mycobacterium tuberculosis (strain ATCC 25618 / H37Rv)) (UniProt P9WHJ3)" assay_result=-0.0609
molecule=NC(=O)CC[C@@H]1NC(=O)[C@H](CO)NC(=O)c2cc([N+](=O)[O-])cc(I)c2NCC[C@@H](C(N)=O)NC1=O target="Protein RecA (Mycobacterium tuberculosis (strain ATCC 25618 / H37Rv)) (UniProt P9WHJ3)" assay_result=30.3
molecule=CCN=c1sc(C(=O)Nc2ccccc2)c(C)n1CC target="Protein RecA (Mycobacterium tuberculosis (strain ATCC 25618 / H37Rv)) (UniProt P9WHJ3)" assay_result=-1.39
molecule=O=C(Nc1ccc(F)cc1)C(=O)c1cn(CC(=O)N2CCOCC2)c2ccccc12 target="Protein RecA (Mycobacterium tuberculosis (strain ATCC 25618 / H37Rv)) (UniProt P9WHJ3)" assay_result=-4.57
molecule=Cc1oc2cc(Br)c(O)c(Br)c2c1C(=O)c1ccccc1 target="Protein RecA (Mycobacterium tuberculosis (strain ATCC 25618 / H37Rv)) (UniProt P9WHJ3)" assay_result=12.7
molecule=CCCC/C(C)=N/NC(=O)NC1CCCCC1 target="Protein RecA (Mycobacterium tuberculosis (strain ATCC 25618 / H37Rv)) (UniProt P9WHJ3)" assay_result=-5.59
molecule=COc1ccccc1-n1nnnc1S(=O)(=O)Cc1ccc(Cl)cc1 target="Protein RecA (Mycobacterium tuberculosis (strain ATCC 25618 / H37Rv)) (UniProt P9WHJ3)" assay_result=81.5
molecule=NCCCC[C@@H]1NC(=O)[C@H](CCC(=O)O)NC(=O)c2cc([N+](=O)[O-])cc(I)c2NCC[C@@H](C(N)=O)NC1=O target="Protein RecA (Mycobacterium tuberculosis (strain ATCC 25618 / H37Rv)) (UniProt P9WHJ3)" assay_result=0.579
molecule=COc1ccccc1N1CCN(S(=O)(=O)c2ccc(Cl)cc2)CC1 target="Protein RecA (Mycobacterium tuberculosis (strain ATCC 25618 / H37Rv)) (UniProt P9WHJ3)" assay_result=13.3
